Data provenance: patent EP4806892A1

Assignment: determine reported IC50 for the given molecules.
target: E3 ubiquitin ligase CRBN (Homo sapiens, UniProt Q96SW2); assay: CRBN competitive binding assay (HTRF, thalidomide-XL665 displacement); conditions: competition with XL665-labeled thalidomide for GST-tagged CRBN protein, 3 hours at room temperature; read-out: IC50
Give bare numbers, in µM.

Worked cases, answers included:
> print(dat)
                                   molecule   u  meas.value
1   O=C1CCN(c2ccc3c(c2)CCC2(CNC2)O3)C(=O)N1  µM        8.36
2   O=C1CCN(c2ccc3c(c2)CC2(CNC2)CO3)C(=O)N1  µM        12.6
3  O=C1CCN(c2ccc3c(c2)CCC2(CCNCC2)O3)C(=O)N1  µM        7.47
4  O=C1CCN(c2ccc3c(c2)OCCC2CNCCN32)C(=O)N1 (stereo not drawn)  µM        5.84
5  O=C1CCN(c2ccc3c(c2)COC[C@@H]2CNCCN32)C(=O)N1  µM        8.59

Hey, quick one: what's IC50 for each of these?
1. O=C1CCN(c2ccc3c(c2)CC2(CCNCC2)O3)C(=O)N1
2. O=C1CCN(c2ccc3c(c2)NC(=O)C2CNCCN32)C(=O)N1 (stereo not drawn)
3. O=C1CCN(c2ccc3c(c2)OC2(CCNCC2)CC3)C(=O)N1
4. O=C1CCN(c2ccc3c(c2)OCC2(CCNCC2)C3)C(=O)N1

13.3
3.34
1.53
12.7

---

Assignment: determine reported pIC50 for the given compounds.
biological target: E3 ubiquitin ligase CRBN (Homo sapiens, UniProt Q96SW2); assay: CRBN competitive binding assay (HTRF, thalidomide-XL665 displacement); settings: competition with XL665-labeled thalidomide for GST-tagged CRBN protein, 3 hours at room temperature; read-out: IC50
One number for each entry, as −log10 of the molar value.

Worked cases, answers included:
> print(dat)
                               smiles.input                               system.name  meas.value
1  O=C1CCC2(CC1)CCc1ccc(N3CCC(=O)NC3=O)cc1O2  E3 ubiquitin ligase CRBN (Homo sapiens, UniProt Q96SW2)        6.23
2  O=C1CCN(c2ccc3c(c2)OCC[C@@H]2CNCCN32)C(=O)N1  E3 ubiquitin ligase CRBN (Homo sapiens, UniProt Q96SW2)        5.25
3  O=C1CCN(c2cnc3c(c2)OCC[C@H]2CNCCN32)C(=O)N1  E3 ubiquitin ligase CRBN (Homo sapiens, UniProt Q96SW2)        5.26
4      O=C1CCN(c2cccc3c2OCC32CCNCC2)C(=O)N1  E3 ubiquitin ligase CRBN (Homo sapiens, UniProt Q96SW2)        4.54
5  CN1CC[C@H]2CNCCN2c2ccc(N3CCC(=O)NC3=O)cc21  E3 ubiquitin ligase CRBN (Homo sapiens, UniProt Q96SW2)        5.42
6   O=C1CCN(c2ccc3c(c2)OCC2(CNC2)C3)C(=O)N1  E3 ubiquitin ligase CRBN (Homo sapiens, UniProt Q96SW2)        5.04

Which measured pIC50 value corresponds to COc1cc2c(cc1N1CCC(=O)NC1=O)OCC[C@H]1CNCCN21 ? 5.27

---

Assignment: determine reported IC50 for the given molecules.
molecular target: E3 ubiquitin ligase CRBN (Homo sapiens, UniProt Q96SW2); assay: CRBN competitive binding assay (HTRF, thalidomide-XL665 displacement); details: competition with XL665-labeled thalidomide for GST-tagged CRBN protein, 3 hours at room temperature; read-out: IC50
Answers are plain numbers, in µM.

Worked cases, answers included:
> print(dat)
                                   molecule  meas.value
1  O=C1CCN(c2ccc3c(c2)OC2(CCNCC2)C3)C(=O)N1        6.15
2  O=C1CCN(c2ccc3c(c2)OCC32CCNCC2(F)F)C(=O)N1 (centres unmarked)        1.73
3  O=C1CCN(c2ccc3c(c2)OCC[C@H]2CNCCN32)C(=O)N1        6.11
4  O=C1CCN(c2cc3c(cc2Cl)N2CCNC[C@@H]2CCO3)C(=O)N1         3.7

Next molecule, please.
Which measured IC50 value corresponds to CN1CC2(CCNCC2)Oc2cc(N3CCC(=O)NC3=O)ccc21 ? 0.91

---

target: UniProtKB Q96SW2; test: CRBN competitive binding assay (HTRF, thalidomide-XL665 displacement); settings: competition with XL665-labeled thalidomide for GST-tagged CRBN protein, 3 hours at room temperature; read-out: IC50
Assignment: determine reported pIC50 for the given compounds.
Give bare numbers, as −log10 of the molar value.

> print(dat)
                                   compound       system.name  measure  meas.value
1  O=C1CCN(c2ccc3c(c2)OC2(CC3)CNC2)C(=O)N1 [Example A5]  UniProtKB Q96SW2    pIC50        5.51
2  COc1cc2c(cc1N1CCC(=O)NC1=O)OCC[C@H]1CN(C(C)=O)CCN21 [Example B12]  UniProtKB Q96SW2    pIC50        5.65
3  O=C1CCN(c2ccc3c(c2)CC2(CCNCC2)CO3)C(=O)N1 [Example A8]  UniProtKB Q96SW2    pIC50        5.02
4  O=C1CCN(c2ccc3c(c2)COC[C@H]2CNCCN32)C(=O)N1 [Example B8]  UniProtKB Q96SW2    pIC50        5.00
5  O=C1CCN(c2cnc3c(c2)OCC[C@@H]2CNCCN32)C(=O)N1 [Example B5]  UniProtKB Q96SW2    pIC50        4.99
6  O=C1CCN(c2ccc3c(c2)NC(=O)CC2CNCCN32)C(=O)N1 (stereo not drawn) [Example B6]  UniProtKB Q96SW2    pIC50        4.61

Hey, quick one: what's pIC50 for each of these?
1. CN1CC2CNCCN2c2ccc(N3CCC(=O)NC3=O)cc21 (stereo not drawn) [Example B11]
2. O=c1ccn(-c2ccc3c(c2)OC2(CCNCC2)CC3)c(=O)[nH]1 [Example A1]
3. O=C1CCN(c2ccc3c(c2)OCC32CCNCC2)C(=O)N1 [Example A9]

1. 5.42
2. 4.59
3. 4.94

---

system: MCF-7 cells; experiment: MCF-7 cell proliferation inhibition (CCK-8); format: cell-based; conditions: Homo sapiens, MCF7, 144 h, 6 days
Measure: IC50
Quick note: unit goes after the number.

Worked cases, answers included:
Compound	IC50
O=C1CC[C@H](N2Cc3cc(N4CCN(CC5CCN(c6ccc([C@@H]7c8ccc(O)cc8CC[C@@H]7c7ccccc7)cc6)CC5)CC4)ccc3C2=O)C(=O)N1 [ARV-471, reference compound]	113 nM
O=C1CCN(c2ccc3c(c2)OCC32CCN(C[C@H]3CC[C@@H](OC4CCN(c5ccc([C@@H]6c7ccc(O)cc7CC[C@@H]6c6ccccc6)cc5)CC4)CC3)CC2)C(=O)N1	944 nM
O=C1CCC(c2ccc3c(c2)OC2(CC3)CCN(C[C@H]3CC[C@@H](OC4CCN(c5ccc([C@@H]6c7ccc(O)cc7CC[C@@H]6c6ccccc6)cc5)CC4)CC3)CC2)C(=O)N1 (some centres unmarked)	873 nM
O=C1CCN(c2ccc3c(c2)CC2(CCN(C[C@H]4CC[C@@H](OC5CCN(c6ccc([C@@H]7c8ccc(O)cc8CC[C@@H]7c7ccccc7)cc6)CC5)CC4)CC2)CO3)C(=O)N1	847 nM

Next compound, please.
Request: IC50, test system MCF-7 cells, entry O=C1CCN(c2ccc3c(c2)CC2(CCN(C[C@H]4CC[C@@H](OC5CCN(c6ccc([C@@H]7c8ccc(O)cc8CC[C@@H]7c7ccccc7)cc6)CC5)CC4)CC2)O3)C(=O)N1 845 nM

---

target: E3 ubiquitin ligase CRBN (Homo sapiens, UniProt Q96SW2); assay: CRBN competitive binding assay (HTRF, thalidomide-XL665 displacement); settings: competition with XL665-labeled thalidomide for GST-tagged CRBN protein, 3 hours at room temperature
Measure: pIC50
Answers are plain numbers, as −log10 of the molar value.

Which measured pIC50 value corresponds to O=C1CCC(c2ccc3c(c2)OC2(CCNCC2)CC3)C(=O)N1 (stereo not shown) ? 6.26

---

test system: T-47D cells; experiment: T-47D cell proliferation inhibition (CCK-8); assay type: cell-based; conditions: Homo sapiens, T47D, 144 h, 6 days
Measure: pIC50
Give bare numbers, as −log10 of the molar value.

Hey, quick one: what's pIC50 for each of these?
1. O=C1CC[C@H](N2Cc3cc(N4CCN(CC5CCN(c6ccc([C@@H]7c8ccc(O)cc8CC[C@@H]7c7ccccc7)cc6)CC5)CC4)ccc3C2=O)C(=O)N1 [ARV-471, reference compound]
2. O=C1CCN(c2ccc3c(c2)OCC32CCN(C[C@H]3CC[C@@H](OC4CCN(c5ccc([C@@H]6c7ccc(O)cc7CC[C@@H]6c6ccccc6)cc5)CC4)CC3)CC2)C(=O)N1
3. O=C1CCN(c2ccc3c(c2)CC2(CCN(C[C@H]4CC[C@@H](OC5CCN(c6ccc([C@@H]7c8ccc(O)cc8CC[C@@H]7c7ccccc7)cc6)CC5)CC4)CC2)CO3)C(=O)N1
4. O=C1CCN(c2ccc3c(c2)OCC[C@H]2CN(C[C@H]4CC[C@@H](OC5CCN(c6ccc([C@@H]7c8ccc(O)cc8CC[C@@H]7c7ccccc7)cc6)CC5)CC4)CCN32)C(=O)N1

[8.57, 7.28, 6.44, 7.66]
